In what follows, each item is paired with its pKi for gelatinase A (HG72kD) (Homo sapiens).
Quick note: pKi means taking -log10 of the concentration in moles per liter.

- MOLECULE: "Cn1cnc(S(=O)(=O)N2CCN(S(=O)(=O)c3ccc(Oc4ccc(Cl)cc4)cc3)[C@@H](C(=O)NO)C2)c1"
  TESTED_ON: "gelatinase A (HG72kD) (Homo sapiens)"
  pKi: 11.40
- MOLECULE: "CC(C)(C)OC(=O)N1CCN(S(=O)(=O)c2ccc(Oc3ccc(C#N)cc3)cc2)C(C(=O)NO)C1 (racemic)"
  TESTED_ON: "gelatinase A (HG72kD) (Homo sapiens)"
  pKi: 9.16

Attention now turns to another entry.
IN: Record O=C(NO)C1CNCCN1S(=O)(=O)c1ccc(Oc2ccccc2)cc1 (racemic) : what is its pKi with gelatinase A (HG72kD) (Homo sapiens)?
OUT: 9.06
